target: SARS-CoV-2 3CL protease (Severe acute respiratory syndrome coronavirus 2); assay type: biochemical; conditions: log10 of IC50 in µM, Figure S1 and S2
endpoint name: LogIC50
Answers are plain numbers.

For orientation, consider the following solved cases.
{"molecule": "N#Cc1ccc(S)nc1", "system under test": "SARS-CoV-2 3CL protease (Severe acute respiratory syndrome coronavirus 2)", "LogIC50": 1.398}
{"molecule": "N#Cc1ccnc(S)c1", "system under test": "SARS-CoV-2 3CL protease (Severe acute respiratory syndrome coronavirus 2)", "LogIC50": 1.241}
{"molecule": "Cc1cnc(=S)[nH]c1", "system under test": "SARS-CoV-2 3CL protease (Severe acute respiratory syndrome coronavirus 2)", "LogIC50": 1.114}

# per-item lookup of LogIC50; items listed below
1. NC(=O)c1csc(C(=O)CCl)c1
2. CN(c1ccc(C(=O)CCl)cc1)S(C)(=O)=O
3. O=C(CCl)COc1ccc(Cl)cc1
4. Cc1ccccc1CN1CCCN(C(=O)CCl)CC1
5. CN1Cc2cc(C(=O)CCl)ccc2NC1=O
6. O=C(CCl)N1CCN(Cc2ccsc2)CC1
7. Cc1cc(C(=O)CCl)c(C)n1-c1ncn[nH]1
8. O=C(CCl)c1ccc(F)c(C(=O)CCl)c1

Result:
1.6293
1.131
1.059
1.52
1.383
1.553
1.188
1.7

# per-item lookup of LogIC50; items listed below
1. O=C(CCl)N1CCc2[nH]c3ccccc3c2C1
2. Cc1ccc(CNC(=O)n2ccnc2)cc1
3. CCN(c1ccc(C(=O)CCl)cc1)S(C)(=O)=O
4. CN(C)C(=O)c1csc(C(=O)CCl)c1
5. CSc1cc(C(=O)CCl)ccc1NC(C)=O
6. CC1C(=O)Nc2ccc(C(=O)CCl)cc21 (centres unmarked)

Result:
[1.042, 1.426, 1.598, 1.555, 1.491, 1.53]
